Biological target: human APJ receptor (Homo sapiens, UniProt P35414)
Construct: expressed in transfected cells
Sequence (P35414 whole entry): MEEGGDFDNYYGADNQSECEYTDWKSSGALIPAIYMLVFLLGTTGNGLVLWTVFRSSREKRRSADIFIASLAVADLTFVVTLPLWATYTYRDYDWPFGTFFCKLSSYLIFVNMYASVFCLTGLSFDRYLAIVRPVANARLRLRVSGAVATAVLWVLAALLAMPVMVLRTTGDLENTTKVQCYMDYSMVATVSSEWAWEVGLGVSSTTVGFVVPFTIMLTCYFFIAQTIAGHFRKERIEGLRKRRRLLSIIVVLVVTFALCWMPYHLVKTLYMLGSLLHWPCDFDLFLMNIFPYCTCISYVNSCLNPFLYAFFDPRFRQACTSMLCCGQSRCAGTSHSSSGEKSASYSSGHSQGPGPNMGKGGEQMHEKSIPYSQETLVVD
Experiment: Intracellular cAMP accumulation assay (APJ hcAMP, HTRF)
Format: cell-based
Details: Table 2; HEK293 cells stably expressing human APJ receptor; read-out: hAPJ cAMP EC50 Potency range
pEC50: −log10 of the molar value.

COMPOUND	pEC50
CCCCc1nc(O)c(-c2nnc(Cc3ccc(Cl)cn3)o2)c(=O)n1C(c1ccccc1)C(C)C (stereo not shown)	8.00 to 11.00
CCCCc1nc(O)c(-c2nnc(Cc3ccc(Cl)cc3)o2)c(=O)n1[C@@H](C)C1CC1	6.52 to 7.00
CCCCc1nc(O)c(-c2nnc(Cc3ccc(Cl)cc3)o2)c(=O)n1[C@H](CC)c1ccccc1	7.00 to 8.00
CCCCc1nc(O)c(-c2nnc(Cc3ccc(Cl)cn3)o2)c(=O)n1[C@@H](C)c1cccc(OC)c1	8.00 to 11.00
